Source of measurements: ChEMBL document CHEMBL4699405

Each entry below carries its reported IC50.
System: MDA-MB-231
experiment_summary: Cytotoxicity against human MDA-MB-231 cells assessed as reduction in cell viability incubated for 24 hrs by SRB assay
Type: functional, cell-based
protocol_conditions: MDA-MB-231, 24 h
Report the value in µM with no unit label.

Query block: # input compound: COc1cc(/C=C/C(=O)CC(=O)/C=C/c2ccc(OCCC[P+](c3ccccc3)(c3ccccc3)c3ccccc3)c(OC)c2)ccc1O ; wanted: its IC50
Result block: 8.33

Query block: And COc1cc(/C=C/C(=O)CC(=O)/C=C/c2ccc(OCCC[P+](c3ccccc3)(c3ccccc3)c3ccccc3)c(OC)c2)ccc1OCCC[P+](c1ccccc1)(c1ccccc1)c1ccccc1 ?
Result block: 5.1
